These entries and their values trace back to patent US20200339625A1.

- System: mice bearing PSMA-expressing LNCAP cancer xenografts
- run-description: Biodistribution of 68Ga-labeled compounds
- Type: in vivo
- test-parameters: 1 h post-injection
Give Y when the value for Tail uptake is at least 1 % ID/g. Give N when it is less.

Answered cases to consult:
molecule	qualitative-label
O=C([O-])CN1CCN(CC(=O)[O-])CCN(CC(=O)NCC2CCC(C(=O)NC(Cc3ccc4ccc5cccc6ccc3c4c56)C(=O)NCCCCC(NC(=O)NC(CCC(=O)O)C(=O)O)C(=O)O)CC2)CCN(CC(=O)[O-])CC1.[68Ga+3] (stereo not shown) [^68Ga-HTK03029]	Y
O=C([O-])CN1CCN(CC(=O)[O-])CCN(CC(=O)NCCCC[C@H](NC(=O)CNC(=O)CCCc2ccccc2)C(=O)NC[C@H]2CC[C@H](C(=O)N[C@@H](Cc3ccc4ccccc4c3)C(=O)NCCCC[C@H](NC(=O)N[C@@H](CCC(=O)O)C(=O)O)C(=O)O)CC2)CCN(CC(=O)[O-])CC1.[68Ga+3] [^68Ga-HTK03056]	Y
O=C([O-])CN1CCN(CC(=O)[O-])CCN(CC(=O)NCCCC[C@H](NC(=O)CNC(=O)CCCc2ccc(Br)cc2)C(=O)NC[C@H]2CC[C@H](C(=O)N[C@@H](Cc3ccc4ccccc4c3)C(=O)NCCCC[C@H](NC(=O)N[C@@H](CCC(=O)O)C(=O)O)C(=O)O)CC2)CCN(CC(=O)[O-])CC1.[68Ga+3] [^68Ga-HTK03058]	Y

Q: Reported Tail uptake reaches at least 1 % ID/g for O=C([O-])CN1CCN(CC(=O)[O-])CCN(CC(=O)NCCCC[C@H](NC(=O)CNC(=O)CCCc2ccc(Cl)cc2)C(=O)NC[C@H]2CC[C@H](C(=O)N[C@@H](Cc3ccc4ccccc4c3)C(=O)NCCCC[C@H](NC(=O)N[C@@H](CCC(=O)O)C(=O)O)C(=O)O)CC2)CCN(CC(=O)[O-])CC1.[68Ga+3] [^68Ga-HTK03055] ?
Ans: Y

Q: // repeat for CCCCCCC(NC(=O)C1CCC(CNC(=O)CN2CCN(CC(=O)[O-])CCN(CC(=O)[O-])CCN(CC(=O)[O-])CC2)CC1)C(=O)NCCCCC(NC(=O)NC(CCC(=O)O)C(=O)O)C(=O)O.[68Ga+3] (stereo not shown) [^68Ga-HTK03026] and report
Ans: N

Q: One more molecule: Nc1ccc(CCCC(=O)NCC(=O)N[C@@H](CCCCNC(=O)CN2CCN(CC(=O)[O-])CCN(CC(=O)[O-])CCN(CC(=O)[O-])CC2)C(=O)NC[C@H]2CC[C@H](C(=O)N[C@@H](Cc3ccc4ccccc4c3)C(=O)NCCCC[C@H](NC(=O)N[C@@H](CCC(=O)O)C(=O)O)C(=O)O)CC2)cc1.[68Ga+3] [^68Ga-HTK03087]
Ans: N

Q: O=C([O-])CN1CCN(CC(=O)[O-])CCN(CC(=O)NCCCC[C@H](NC(=O)CNC(=O)CCc2ccccc2)C(=O)NC[C@H]2CC[C@H](C(=O)N[C@@H](Cc3ccc4ccccc4c3)C(=O)NCCCC[C@H](NC(=O)N[C@@H](CCC(=O)O)C(=O)O)C(=O)O)CC2)CCN(CC(=O)[O-])CC1.[68Ga+3] [^68Ga-HTK03082] , same question.
Ans: N
